assay: chemical genetic growth profiling, strain panel (AID 1159580);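 further: tested at 20 µM; growth read once vehicle control cultures reached saturation at 30 °C; 1 = growth at the plate median or of vehicle wells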; conditions: S. cerevisiae deletion strains, growth OD, locus YMR223W, strain ubp8
Screen size: about 5,500 compounds; about 2,000 (36%) were called active. Roughly 18% stayed inconclusive and do not appear here. No stated cut-off is given here; in the data, active means normalized growth mostly below about 0.91 (no sharp cut-off); inconclusive means no clear call, values can overlap the other calls; inactive means mostly above about 0.92. Some of the results follow.
Reply using exactly one outcome from TRUE for active, FALSE for inactive

Assay result, entry COc1ccc2c(c1)OC/C(=C\c1ccc(OC)c(O)c1)C2=O — outcome? TRUE

Assay result, entry C[C@]12CCC(=O)C=C1C=CC1C2CC[C@@]2(C)C1CC[C@@]2(O)CCC(=O)O (stereo not given in full) — outcome? FALSE

Assay result, entry CCCCCCCCCCC[C@@H](C[C@H]1OC(=O)[C@H]1CCCCCC)OC(=O)[C@@H](CC(C)C)NC=O — outcome? FALSE

* * *

experiment: chemical genetic growth profiling, strain panel (AID 1159580);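 further: tested at 20 µM; growth read once vehicle control cultures reached saturation at 30 °C; 1 = growth at the plate median or of vehicle wells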; conditions: S. cerevisiae deletion strains, growth OD, locus YAL030W, strain snc1, stronger effect = lower value
Screen size: about 5,500 compounds; about 2,000 (36%) were called active. Not shown: some 18% with an inconclusive outcome. The list shows a part of the results.
Examples of compounds with documented normalized growth follow.
# output: bare number, no unit

// below: answered compounds
# compound, normalized growth
measured = [
    ("O=S(=O)(O)c1cc(N=C=S)ccc1/C=C/c1ccc(N=C=S)cc1S(=O)(=O)O", 1.02),
    ("Oc1cc(O)c2c(c1)O[C@H](c1ccc(O)c(O)c1)[C@@H](O)C2", 1.01),
    ("C=C[C@@](C)(O)CCC1C(=C)C[C@H](OC(C)=O)C2C(C)(C)CCCC12C (stereo partly drawn)", 1.04),
    ("Oc1cc(O)c2c(c1)O[C@H](c1ccc(O)c(O)c1)[C@H](O)C2", 1),
    ("COc1ccc([C@H]2Oc3c(I)c(OC)cc(OC)c3C[C@@H]2O)cc1OC", 1.01),
]

Record summary for Oc1cc(O)c2c(c1)O[C@H](c1cc(O)c(O)c(O)c1)[C@H](O)C2 : reported normalized growth = 1.01

Record summary for Oc1ccc2c(c1)O[C@H](c1ccc(O)c(O)c1)[C@@H](O)C2 : reported normalized growth = 1.02

Record summary for CC[C@@H]1C=C/C=C/C[C@H](C)[C@@H](O)[C@](C)(O)C(=O)[C@H](C)[C@@H](O)[C@H](C)C(=O)[C@H](C)[C@@H](O)[C@H](C)/C=C/C(=O)O[C@H]2[C@@H](C)[C@@H](CC1)O[C@@]1(CC[C@@H](C)[C@@H](C[C@H](C)O)O1)[C@@H]2C : reported normalized growth = 1

* * *

experiment: chemical genetic growth profiling, strain panel (AID 1159580);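 further: tested at 20 µM; growth read once vehicle control cultures reached saturation at 30 °C; 1 = growth at the plate median or of vehicle wells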; conditions: S. cerevisiae deletion strains, growth OD, locus YKL009W, strain mrt4
About 2,000 (36%) of roughly 5,500 compounds were called active. Not shown: some 18% with an inconclusive outcome. Cut-off read from the data, not from the text of the source: active = normalized growth mostly below about 0.91 (no sharp cut-off); inconclusive = no clear call, values can overlap the other calls; inactive = mostly above about 0.92. Some of the results follow.
Reply using exactly one outcome from yes (1) for active, no (0) for inactive

Answered examples (5):
# compound, label
data = [
    ("O=C(O)/C=C/c1ccc(O)c(O)c1", "no (0)"),
    ("O=C(OCC(O)CO)c1ccccc1Nc1ccnc2cc(Cl)ccc12 (centres undefined)", "no (0)"),
    ("COc1ccc(-c2coc3cc(O)ccc3c2=O)cc1", "no (0)"),
    ("CNCCC(Oc1ccc(C(F)(F)F)cc1)c1ccccc1 (centres undefined)", "no (0)"),
    ("CC1(C)S[C@@H]2[C@H](NC(=O)[C@H](N)c3ccccc3)C(=O)N2[C@H]1C(=O)O", "no (0)"),
]

Assay result, entry CNC(=O)O/N=C(\C)SC — outcome? no (0)

Assay result, entry C#CCN(C)Cc1ccccc1 — outcome? no (0)

Assay result, entry O=C1C(Cl)=C(Cl)C(=O)C(Cl)=C1Cl — outcome? yes (1)

Assay result, entry COc1ccc2c(c1)OC/C(=C/c1ccc(OC)c(OC)c1)C2=O — outcome? no (0)
